target: Angiotensin-converting enzyme (Homo sapiens, UniProt P12821)
Sequence (P12821 whole entry): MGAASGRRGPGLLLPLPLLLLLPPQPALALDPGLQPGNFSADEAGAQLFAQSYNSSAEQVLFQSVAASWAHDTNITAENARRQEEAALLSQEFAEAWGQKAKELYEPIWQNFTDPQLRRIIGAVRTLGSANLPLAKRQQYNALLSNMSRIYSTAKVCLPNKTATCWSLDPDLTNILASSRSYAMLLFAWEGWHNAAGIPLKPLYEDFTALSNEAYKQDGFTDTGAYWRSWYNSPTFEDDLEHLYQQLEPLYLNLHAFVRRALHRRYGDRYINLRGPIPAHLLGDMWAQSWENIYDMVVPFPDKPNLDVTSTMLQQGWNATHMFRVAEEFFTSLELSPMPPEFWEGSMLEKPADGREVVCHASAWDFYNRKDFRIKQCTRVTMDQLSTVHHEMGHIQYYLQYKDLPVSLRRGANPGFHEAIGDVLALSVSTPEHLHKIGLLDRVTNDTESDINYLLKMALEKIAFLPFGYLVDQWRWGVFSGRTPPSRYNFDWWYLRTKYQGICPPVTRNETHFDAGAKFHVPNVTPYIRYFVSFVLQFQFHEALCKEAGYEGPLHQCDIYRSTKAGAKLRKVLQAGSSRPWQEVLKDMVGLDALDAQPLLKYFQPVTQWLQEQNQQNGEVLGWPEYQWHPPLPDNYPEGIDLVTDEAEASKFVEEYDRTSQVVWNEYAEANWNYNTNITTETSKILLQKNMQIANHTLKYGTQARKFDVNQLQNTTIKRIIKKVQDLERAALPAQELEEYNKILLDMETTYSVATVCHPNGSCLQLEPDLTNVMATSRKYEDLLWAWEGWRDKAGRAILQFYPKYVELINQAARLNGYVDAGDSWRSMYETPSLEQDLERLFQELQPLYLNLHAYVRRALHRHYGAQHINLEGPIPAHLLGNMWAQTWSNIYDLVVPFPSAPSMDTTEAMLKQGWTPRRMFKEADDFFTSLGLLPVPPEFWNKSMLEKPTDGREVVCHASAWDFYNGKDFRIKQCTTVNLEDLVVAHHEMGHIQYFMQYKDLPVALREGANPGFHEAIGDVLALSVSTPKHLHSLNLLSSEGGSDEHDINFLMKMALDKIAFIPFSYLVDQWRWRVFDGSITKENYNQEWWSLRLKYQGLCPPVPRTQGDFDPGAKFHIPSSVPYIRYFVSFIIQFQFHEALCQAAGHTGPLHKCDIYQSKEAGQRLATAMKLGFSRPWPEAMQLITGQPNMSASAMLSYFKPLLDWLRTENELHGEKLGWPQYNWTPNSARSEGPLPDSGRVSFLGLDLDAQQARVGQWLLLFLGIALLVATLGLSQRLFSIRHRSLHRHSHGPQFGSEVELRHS
assay.endpoint: IC50

Query: Tell me IC50 of CC(C)[C@@H](O)C[C@H](O)[C@H](CC1CCCCC1)NC(=O)[C@H](Cc1cnc[nH]1)NC(=O)c1cc2ccccc2[nH]1 when tested on Angiotensin-converting enzyme (Homo sapiens, UniProt P12821).
Reply: > 100 µM

###

# Delta SBP per entry
experiment: In vivo blood pressure lowering effects in salt depleted conscious marmosets was determined when a dose of 10mg/Kg, po. at 3h; type: functional, Callitrichinae
Number plus unit, in that order.

Here are 3 molecules together with their reported answers.
>>> test_result("CC(C)[C@@H](O)C[C@H](O)[C@H](CC1CCCCC1)NC(=O)[C@H](Cc1c[nH]cn1)NC(=O)c1cc2ccccc2c(O)n1")
"2 mmHg"
>>> test_result("CC(C)[C@@H](O)C[C@H](O)[C@H](CC1CCCCC1)NC(=O)[C@H](Cc1c[nH]cn1)NC(=O)c1nc2ccccc2[nH]1")
"-7 mmHg"
>>> test_result("CC(C)[C@@H](O)C[C@H](O)[C@H](CC1CCCCC1)NC(=O)[C@H](Cc1c[nH]cn1)NC(=O)c1cc2cc(F)ccc2[nH]1")
"-12 mmHg"

Switching to the query record.
Query: For CC(C)[C@@H](O)C[C@H](O)[C@H](CC1CCCCC1)NC(=O)[C@H](Cc1c[nH]cn1)NC(=O)c1cc2ccccc2[nH]1 , write its Delta SBP.
Reply: -13 mmHg

###

target: Renin (Homo sapiens, UniProt P00797); assay: In vitro renin inhibitory effect was evaluated for plasma renin activity (PRA) of human plasma, Expressed as IC50
Sequence (P00797 whole entry): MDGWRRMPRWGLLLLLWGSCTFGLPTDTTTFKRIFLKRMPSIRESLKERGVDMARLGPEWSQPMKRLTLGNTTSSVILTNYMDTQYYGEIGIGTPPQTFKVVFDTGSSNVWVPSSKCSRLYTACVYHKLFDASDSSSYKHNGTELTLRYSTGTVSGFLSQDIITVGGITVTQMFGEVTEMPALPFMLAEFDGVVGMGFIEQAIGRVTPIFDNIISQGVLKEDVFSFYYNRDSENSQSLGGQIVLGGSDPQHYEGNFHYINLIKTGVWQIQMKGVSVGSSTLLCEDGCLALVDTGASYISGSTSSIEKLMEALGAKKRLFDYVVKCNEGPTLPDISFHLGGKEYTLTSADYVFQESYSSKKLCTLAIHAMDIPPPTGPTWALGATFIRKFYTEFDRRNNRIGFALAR
Reported pIC50 values are given for each entry in this list.
Convention used: pIC50 is expressed as -log10 of the molar concentration.

Answered examples (3):
>>> test_result("CC(C)[C@@H](O)C[C@H](O)[C@H](CC1CCCCC1)NC(=O)[C@H](Cc1c[nH]cn1)NC(=O)c1cc2ccccc2o1")
6.85
>>> test_result("CC(C)[C@@H](O)C[C@H](O)[C@H](CC1CCCCC1)NC(=O)[C@H](Cc1cnc[nH]1)NC(=O)c1cc2cccnc2[nH]1")
6.10
>>> test_result("CC(C)[C@@H](O)C[C@H](O)[C@H](CC1CCCCC1)NC(=O)[C@H](Cc1c[nH]cn1)NC(=O)c1cc2cc(F)ccc2[nH]1")
7.34

Query: # return recorded pIC50 for entry CC(C)[C@@H](O)C[C@H](O)[C@H](CC1CCCCC1)NC(=O)[C@H](Cc1cnc[nH]1)NC(=O)C1Cc2ccccc2N1 (stereo in doubt; 4)
Reply: 6.06

Query: // Input: CC(C)[C@@H](O)C[C@H](O)[C@H](CC1CCCCC1)NC(=O)[C@H](Cc1cnc[nH]1)NC(=O)[C@@H]1Cc2ccccc2CN1 . Output its pIC50 only.
Reply: 6.38

Query: Tell me pIC50 reported for CC(=O)n1c(C(=O)N[C@@H](Cc2cnc[nH]2)C(=O)N[C@@H](CC2CCCCC2)[C@@H](O)C[C@H](O)C(C)C)cc2ccccc21
Reply: 6.47

Query: Provide measured pIC50 value, entry: CC(C)[C@@H](O)C[C@H](O)[C@H](CC1CCCCC1)NC(=O)[C@H](Cc1c[nH]cn1)NC(=O)c1cc2ccccc2c(O)n1
Reply: 7.32

Query: Input CC(C)[C@@H](O)C[C@H](O)[C@H](CC1CCCCC1)NC(=O)[C@H](Cc1c[nH]cn1)NC(=O)c1cc2ccccc2cn1 , output reported pIC50.
Reply: 6.10

Query: Input CC(C)[C@@H](O)C[C@H](O)[C@H](CC1CCCCC1)NC(=O)[C@H](Cc1cnc[nH]1)NC(=O)c1cc2ccccc2s1 , output reported pIC50.
Reply: 5.09

Query: Kindly indicate its recorded pIC50. Item: CC(C)[C@@H](O)C[C@H](O)[C@H](CC1CCCCC1)NC(=O)[C@H](Cc1c[nH]cn1)NC(=O)c1cc2cc(Cl)ccc2[nH]1
Reply: 6.59

Query: Give me measured pIC50, please, for this compound: CC(C)[C@@H](O)C[C@H](O)[C@H](CC1CCCCC1)NC(=O)[C@H](Cc1cnc[nH]1)N(C)C(=O)[C@H](Cc1ccccc1)NC(=O)N1CCC(O)CC1
Reply: 9.17

Query: Complete the entry with pIC50 for CC(C)[C@@H](O)C[C@H](O)[C@H](CC1CCCCC1)NC(=O)[C@H](Cc1c[nH]cn1)NC(=O)c1ccc[nH]1
Reply: 5.52

Query: Give a short answer stating reported pIC50 for CC(C)[C@@H](O)C[C@H](O)[C@H](CC1CCCCC1)NC(=O)[C@H](Cc1cnc[nH]1)NC(=O)C1Cc2ccccc2N1 (stereo in doubt) .
Reply: 5.36

Query: Give the reported pIC50 for this compound. CC(C)[C@@H](O)C[C@H](O)[C@H](CC1CCCCC1)NC(=O)[C@H](Cc1c[nH]cn1)NC(=O)c1nc2ccccc2[nH]1
Reply: 7.89

Query: Find the measured pIC50 of CC(C)[C@@H](O)C[C@H](O)[C@H](CC1CCCCC1)NC(=O)[C@H](Cc1cnc[nH]1)NC(=O)c1cc2cc(O)ccc2[nH]1 and report it.
Reply: 6.22
